- study.target: recombinant cynomolgus monkey CD3ε/δ heterodimer (cynomolgus monkey) (UniProt Q95LI5)
- Sequence (Q95LI5 22-117, stated change not applied, chain 1 of 2): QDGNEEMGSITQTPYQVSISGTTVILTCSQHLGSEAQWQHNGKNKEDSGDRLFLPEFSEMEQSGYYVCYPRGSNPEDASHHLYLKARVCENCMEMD
- Sequence (Q95LI8 22-105, stated change not applied, chain 2 of 2, further chain): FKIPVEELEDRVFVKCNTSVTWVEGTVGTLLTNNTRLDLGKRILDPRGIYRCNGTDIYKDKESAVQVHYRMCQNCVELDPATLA
- protocol.text: ELISA, coated CD3ε/δ
Assign class by Absorbance (450 nm): not lower than 0.1 means 1.0; lower than 0.1 means 0.0.

# example entries with known answers
H01 (antibody, human IgG1, lambda, L234A L235A, V domains shown) VH: EVQLVESGGGLVQPGGSLKLSCAASGFTFNTYAMNWVRQASGKGLEWVARIRSKYNNYATYYADSVKDRFTISRDDSQSTLYLQMNSLKTEDTAVYYCVRHGNFGNSYVSWFAYWGQGTLVTVSS VL: QAVVTQEPSLTVSPGGTVTLTCRSSTGAVTTSNYANWFQQKPGQAPRTLIYGTNKRAPWTPARFSGSLLGGKAALTLSGAQPEDEAEYYCALWYSNLWVFGGGTKLTVLG | 1.0
C03 (antibody, human IgG1, lambda, L234A L235A, V domains shown) VH: EVQLVESGGGLVQPGGSLKLSCAASGFTFNTYAMNWVRQASGKGLEWVGRIRSKYNNYATYYADSVKDRFTISRDDSQSTAYLQMNSLKTEDTAVYYCVRHGNFGNSYVSWFAYWGQGTLVTVSS VL: QAVVTQEPSLTVSPGGTVTLTCRSSTGAVTTSNYANWFQQKPGQAPRTLIGGTNKRAPWTPARFSGSLLGGKAALTLSGAQPEDEAEYYCALWYSNLWVFGGGTKLTVLG | 0.0

Record H08 (antibody, human IgG1, lambda, L234A L235A, V domains shown) VH: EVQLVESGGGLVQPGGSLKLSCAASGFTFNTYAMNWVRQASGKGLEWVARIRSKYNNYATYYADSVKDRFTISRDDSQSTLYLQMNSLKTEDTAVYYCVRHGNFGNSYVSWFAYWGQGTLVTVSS VL: QAVVTQEPSLTVSPGGTVTLTCRSSTGAVTTSNYANWFQQKPGQAPRGLIGGTNKRAPWTPARFSGSLLGDKAALTLSGAQPEDEAEYYCALWYSNLWVFGGGTKLTVLG ; criterion: Absorbance (450 nm) no lower than 0.1. Met? 1.0

Next up: F07 (antibody, human IgG1, lambda, L234A L235A, V domains shown) VH: EVQLVESGGGLVQPGGSLKLSCAASGFTFNTYAMNWVRQASGKGLEWVARIRSKYNNYATYYADSVKDRFTISRDDSKNTLYLQMNSLKTEDTAVYYCVRHGNFGNSYVSWFAYWGQGTLVTVSS VL: QAVVTQEPSLTVSPGGTVTLTCRSSTGAVTTSNYANWFQQKPGQAPRGLIGGTNKRAPWTPARFSGSLLGGKAALTLSGAQPEDEAEYYCALWYSNLWVFGGGTKLTVLG 1.0

Next up: F11 (antibody, human IgG1, lambda, L234A L235A, V domains shown) VH: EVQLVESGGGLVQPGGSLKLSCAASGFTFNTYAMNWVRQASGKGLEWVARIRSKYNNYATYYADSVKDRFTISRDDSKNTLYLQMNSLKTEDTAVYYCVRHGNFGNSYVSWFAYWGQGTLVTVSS VL: QAVVTQEPSLTVSPGGTVTLTCRSSTGAVTTSNYANWVQQKPGQAPRTLIGGTNKRAPWTPARFSGSLLGGKAALTLSGAQPEDEAEYYCALWYSNLWVFGGGTKLTVLG 1.0
